Data provenance: PubChem BioAssay (EPA / NIEHS)

Read-out: Bcl-2 (BAD) gene, BAD (gene 572)
Method Notes: LTEA_HepaRG_BAD: Life Technologies and Expression Analysis (LTEA) Assay for Bcl-2 (BAD) gene using HepaRG (AID 2283469)
Condition Set: mRNA level, 48 h; actives raise or lower the signal
Calls of active or inactive are those of the source. The calls were made as follows: active = hit-call score of the fitted dose curve at least 0.9, where 1 is the maximum; inactive = score below 0.9.
Return exactly one item of active, inactive

{"Chemical String": "CCCCOC(=O)c1ccc(O)cc1", "Assigned Label": "inactive"}
{"Chemical String": "CC[C@H](NC(=O)c1cc(F)ccc1NS(=O)(=O)c1cccc2cccnc12)c1ccccc1", "Assigned Label": "inactive"}
{"Chemical String": "C[C@]12CC[C@@H]3c4ccc(O)cc4CC[C@H]3[C@@H]1CCC2=O", "Assigned Label": "inactive"}
{"Chemical String": "CN1C(=O)CC[C@H]1c1cccnc1", "Assigned Label": "inactive"}
{"Chemical String": "CCCCCCCCCCCCO", "Assigned Label": "inactive"}
{"Chemical String": "Oc1ccccc1", "Assigned Label": "inactive"}
{"Chemical String": "CN(C)C(=O)C1(N2CCCCC2)CCN(CC[C@@]2(c3ccc(Cl)c(Cl)c3)CN(C(=O)c3ccccc3)CCO2)CC1", "Assigned Label": "inactive"}
{"Chemical String": "CN(C[C@@H](CC[N+]12CCC(C3CCCCC3)(CC1)CC2)c1ccc(Cl)c(Cl)c1)C(=O)c1cc(C(F)(F)F)cc(C(F)(F)F)c1", "Assigned Label": "inactive"}
{"Chemical String": "O=C(O)Cn1c(=O)n(Cc2ccc(Br)cc2F)c(=O)c2ccc(Cl)cc21", "Assigned Label": "inactive"}
{"Chemical String": "Cc1ccc(C(C)C)cc1", "Assigned Label": "inactive"}

Q: Identify the outcome logged in this assay for the compound shown: Cc1ccc2oc(CN(Cc3ccccc3)C(=O)Nc3c(F)cc(F)cc3F)c(-c3ccc(Cl)cc3)c2c1
A: inactive

Q: Identify the outcome logged in this assay for the compound shown: CCN(Cc1cccc(S(=O)(=O)O)c1)c1ccc(C(=C2C=CC(=[N+](CC)Cc3cccc(S(=O)(=O)O)c3)C=C2)c2ccccc2S(=O)(=O)[O-])cc1
A: inactive

Q: Identify the outcome logged in this assay for the compound shown: CC(C)(C)c1csc(-c2cc3cc(OCc4ccccc4CC(=O)O)ccc3o2)n1
A: inactive

Q: Identify the outcome logged in this assay for the compound shown: Cc1cc(F)ccc1-c1cc(N2CC[C@@H](O)[C@H]2CO)ncc1N(C)C(=O)C(C)(C)c1cc(C(F)(F)F)cc(C(F)(F)F)c1
A: active

Q: Identify the outcome logged in this assay for the compound shown: CCCCCCCCOc1ccc(C(=O)c2ccccc2)c(O)c1
A: inactive
